FYI, the data here is from patent US12195427B2.

Let's look at some molecules and their measured van der Waals contact distance, MASP-2 PHE 529 atom CE2.
- measurementTarget: MASP-2 CCP2-SP (Homo sapiens (Human), UniProt O00187)
- Sequence (O00187 445-686): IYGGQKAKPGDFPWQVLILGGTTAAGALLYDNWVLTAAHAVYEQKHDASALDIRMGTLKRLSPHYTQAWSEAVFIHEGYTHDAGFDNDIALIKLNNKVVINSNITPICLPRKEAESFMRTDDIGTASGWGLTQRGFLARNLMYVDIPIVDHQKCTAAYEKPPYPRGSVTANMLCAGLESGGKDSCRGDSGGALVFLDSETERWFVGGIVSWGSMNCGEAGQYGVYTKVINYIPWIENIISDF
- Sequence (O00187 364-432 partner): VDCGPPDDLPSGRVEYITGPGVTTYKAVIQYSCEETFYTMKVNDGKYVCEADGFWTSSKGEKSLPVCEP
- measurementDescription: MASP-2 co-crystallization, X-ray crystallography and structure analysis (H-bonds, van der Waals contacts)
- measurementContext: Table A2-3
Where a name gives a salt, the structure may show the parent alone.
testReadout: van der Waals contact distance, MASP-2 PHE 529 atom CE2

molecule: CNC(=O)c1ccc2c(=O)n(Cc3ccccc3)c(=O)n(CC(=O)NCc3ccc(C(=N)N)cc3)c2c1
measurementTarget: MASP-2 CCP2-SP (Homo sapiens (Human), UniProt O00187)
reportedValue: 3.68
--
molecule: Cc1nc(N)ccc1CNC(=O)[C@H](C)NC(=O)[C@H]1C[C@H](Cc2cc(-c3ccccc3)cs2)CN1 [compound 1399, Dihydrochloride]
measurementTarget: MASP-2 CCP2-SP (Homo sapiens (Human), UniProt O00187)
reportedValue: 3.7
--
molecule: C[C@H](NC(=O)[C@H]1C[C@@H](c2ccccc2)CCN1)C(=O)NCc1cnc2[nH]cc(Cl)c2c1
measurementTarget: MASP-2 CCP2-SP (Homo sapiens (Human), UniProt O00187)
reportedValue: 3.82
--
molecule: C[C@H](NC(=O)[C@H](N)CCc1ccccc1)C(=O)NCc1cc(Cl)ccc1O [compound 1031, Hydrochloride]
measurementTarget: MASP-2 CCP2-SP (Homo sapiens (Human), UniProt O00187)
reportedValue: 3.75
--
molecule: Cc1nc(N)ccc1CNC(=O)[C@H](C)NC(=O)[C@H]1C[C@H](Cc2ccccc2)CN1
measurementTarget: MASP-2 CCP2-SP (Homo sapiens (Human), UniProt O00187)
reportedValue: 3.84
--
molecule: C[C@H](NC(=O)[C@H]1C[C@H](Cc2ccccc2)CN1)C(=O)NCc1cc(Cl)ccc1-n1cnnn1 [compound 1371, Hydrochloride]
measurementTarget: MASP-2 CCP2-SP (Homo sapiens (Human), UniProt O00187)
reportedValue: 3.89
--
molecule: C[C@H](NC(=O)[C@H]1C[C@H](c2ccccc2)CN1)C(=O)NCc1ccc(C(=N)N)cc1
measurementTarget: MASP-2 CCP2-SP (Homo sapiens (Human), UniProt O00187)
reportedValue: 3.72
--
molecule: C[C@H](NC(=O)[C@H]1C[C@H](c2ccccc2)CN1)C(=O)NCc1ccc(N)nc1
measurementTarget: MASP-2 CCP2-SP (Homo sapiens (Human), UniProt O00187)
reportedValue: 3.78
--
molecule: CC(=O)Nc1ccc(CCN[C@H](CCc2ccccc2)C(=O)N[C@@H](C)C(=O)NCc2ccc(N)nc2C)cc1 [compound 1368, Dihydrochloride]
measurementTarget: MASP-2 CCP2-SP (Homo sapiens (Human), UniProt O00187)
reportedValue: 3.79
--
molecule: Cc1nc(N)ccc1CNC(=O)[C@H](C)NC(=O)[C@H]1C[C@H](Cc2ccc3ccccc3c2)CN1
measurementTarget: MASP-2 CCP2-SP (Homo sapiens (Human), UniProt O00187)
reportedValue: 3.86
--
molecule: C[C@H](NC(=O)[C@H]1C[C@@H](c2ccccc2)CN1)C(=O)NCc1ccc(C(=N)N)cc1
measurementTarget: MASP-2 CCP2-SP (Homo sapiens (Human), UniProt O00187)
reportedValue: 3.73
--
molecule: Cc1nc(N)ccc1CNC(=O)[C@H](C)NC(=O)[C@H]1C[C@@H](c2ccccc2)CCN1 [compound 1253, Dihydrochloride]
measurementTarget: MASP-2 CCP2-SP (Homo sapiens (Human), UniProt O00187)
reportedValue: 3.77
